Numbers sourced from ChEMBL document CHEMBL6096679.

# EXPERIMENT SUMMARY: Induction of GLUT1 translocation in mouse 3T3-L1 cells by Western blot analysis
# Assay type: cell-based
METRIC: IC50 (nM)

[[record]]
compound = "CCOc1ccc2nc(-c3cccc(OCC(=O)NC(C)C)c3)nc(Nc3ccc(-c4cn[nH]c4)cc3)c2c1"
readout_number = 115

[[record]]
compound = "C[C@@]1(C(=O)NCc2cccnc2)Cn2nc(-c3ccccc3)cc2C(=O)N1Cc1ccc(N2CCOCC2)cc1"
readout_number = 6.2

[[record]]
compound = "O=C(CN1C(=O)S/C(=C/c2ccccc2)C1=O)Nc1nc2c(Cl)cccc2s1"
readout_number = 12600


(A) O=C(CN1C(=O)S/C(=C/c2ccco2)C1=O)Nc1ccc(Cl)c(Cl)c1
(B) COc1ccc(CC(=O)N[C@@H](Cc2cccc(Br)c2)C(=O)N[C@@H](C)c2ccccc2)cc1
(C) O=C(CN1C(=O)S/C(=C/c2ccc(Cl)cc2)C1=O)Nc1ccc(Cl)cc1C(F)(F)F
(D) C[C@H](NC(=O)[C@H](Cc1ccc(F)cc1)NC(=O)Cc1cccc(O)c1)c1ccccc1
Ask: Number of compounds to sort: 4. Sort criterion: IC50, ascending. Thanks in advance for listing the labels in the requested order.
Reply: B, D, C, A

(I) O=C(CN1C(=O)S/C(=C/c2ccco2)C1=O)Nc1nc2ccccc2s1
(II) COc1ccccc1N1CCN(c2ncnc3c2cnn3-c2cc(F)cc(F)c2)CC1
Ask: // returns I or II , whichever has the lower IC50 Mark your answer with the label of the selected entry.
Reply: II

(a) O=C(CN1C(=O)S/C(=C/c2ccc(F)cc2)C1=O)Nc1cccc(C(F)(F)F)c1
(b) Cc1ccc(CNc2ccc(Cl)cc2NCc2ccc(C)c(O)c2)cc1O
Ask: Could you tell me which of a and b has the lower IC50 reading? Mark your selection by writing its label.
Reply: b
